Every entry's value here was drawn from PubChem BioAssay (NCI).

System: HCC-2998 colon
Experiment: NCI tumour cell line growth inhibition, 48 h
observable: GI50

INSERT INTO results (query_smiles, obs_value) VALUES
  ('CCOc1ccc(/C=C/[N+](=O)[O-])cc1', '1820 nM');

Here are 5 compounds. What values of GI50 were reported for them?
1. C/C(=C\CCc1ccoc1)CC/C=C(\C)CCCN1CCC(CO)CC1
2. CC(=O)OC[C@]12CC[C@@H]([C@@H](C)C(N)=O)[C@@H]1[C@H]1CC[C@@H]3[C@@]4(C)CC[C@H](OC(C)=O)C(C)(C)[C@@H]4CC[C@@]3(C)[C@]1(C)CC2
3. c1ccc(-c2nn(-c3ccccc3)[n+](-c3cccc4ccccc34)n2)cc1
4. CCCCN(CCCC)CCCN=c1nc2c(c(N)n1-c1ccccc1)c(=S)n(-c1ccccc1)c(=S)n2-c1ccccc1
5. CN1CCN(Cc2ccc(NC(=O)c3ccc(C#N)c(C#Cc4cnc(N)c5ncccc45)c3)cc2C(F)(F)F)CC1

["2100 nM", "10400 nM", "1910 nM", "825 nM", "3890 nM"]

Read off the recorded GI50 for C=C1C(=O)O[C@@H]2C[C@@H]1CC[C@@]1(C)O[C@@H]1CC[C@@]1(C)O[C@@H]1CC[C@@]2(C)O
4210 nM
